src = patent US11065226B2

# target_entity: rat EP4 receptor (Rattus norvegicus, UniProt P43114)
# Construct: expressed in transfected cells; host or cells: CHO cells
# Sequence (P43114 whole entry): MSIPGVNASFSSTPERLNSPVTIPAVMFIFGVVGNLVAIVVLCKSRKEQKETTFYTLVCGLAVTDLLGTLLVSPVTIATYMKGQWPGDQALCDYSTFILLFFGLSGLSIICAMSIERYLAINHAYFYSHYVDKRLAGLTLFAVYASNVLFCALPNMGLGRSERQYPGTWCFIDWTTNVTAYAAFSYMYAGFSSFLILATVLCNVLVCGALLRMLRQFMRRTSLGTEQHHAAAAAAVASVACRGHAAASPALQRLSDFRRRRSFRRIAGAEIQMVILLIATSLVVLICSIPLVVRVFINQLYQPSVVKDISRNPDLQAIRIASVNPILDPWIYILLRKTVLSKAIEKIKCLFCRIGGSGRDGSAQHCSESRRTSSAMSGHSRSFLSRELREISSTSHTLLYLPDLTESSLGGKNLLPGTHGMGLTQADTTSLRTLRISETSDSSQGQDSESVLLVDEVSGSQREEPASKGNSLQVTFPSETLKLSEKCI
# procedure_details: EP4 antagonistic activity measurement using prostanoid receptor subtype-expressing cells (cAMP, PGE2 10 nM)
# Assay type: cell-based
# conditions: CHO cells expressing rat EP4 receptor; inhibition of cAMP production by PGE2 10 nM; 30 minutes at room temperature
reported_endpoint: IC50 (nM)
Your answer should be a plain number; it is taken to be in nM.

Returns the measured IC50 for the input compound. Input: Cn1cc(NC(=O)c2ccc3c(c2)[C@]2(CCO3)C[C@H]2C(=O)Nc2cc(C#N)ccc2CCCC(=O)O)cn1
1.3
